# assay.details: resazurin metabolic signal in HepG2 cells – cell-based, resazurin fluorescence, 24 h, PK04 Diversity Set, profiling panel (AID 1172); further: test concentration not given here
# test.context: HepG2 viability, higher = more signal
observable: z-score
In your answer, state the number alone without any accompanying words.

Reference set (10 entries):
[[record]]
molecule = "COC(=O)[C@@]1(CCC(=O)OC(C)(C)C)N=C(c2ccc(OCCCO)cc2)O[C@H]1c1ccccc1"
observable = "z-score"
obs_value = -0.291

[[record]]
molecule = "CC(c1ccccc1)C(O)C1C=CC2C(=O)N(C)C(=O)C2N1NC(=O)OC(C)(C)C (stereo not given)"
observable = "z-score"
obs_value = -0.67

[[record]]
molecule = "[N-]=[N+]=Nc1ccccc1C[C@@]1(C(=O)N2CCCCC2)N=C(c2ccc(OCCCO)cc2)O[C@@H]1c1ccccc1N=[N+]=[N-]"
observable = "z-score"
obs_value = -0.45

[[record]]
molecule = "[N-]=[N+]=NCc1ccccc1[C@@H]1OC(c2ccc(OCCCO)cc2)=N[C@]1(CCS(=O)(=O)c1ccccc1)C(=O)N1CCCCC1"
observable = "z-score"
obs_value = -0.227

[[record]]
molecule = "CCCC=C(CCC)[C@@H](NS(=O)(=O)c1ccc(Cl)cc1)c1ccc(C(=O)OC)cc1"
observable = "z-score"
obs_value = 1.16

[[record]]
molecule = "O=C(NCc1ccccc1)[C@@H]1c2ccccc2C(=O)N(C2Cc3ccccc3C2)[C@H]1c1ccc(CO)cc1"
observable = "z-score"
obs_value = -0.786

[[record]]
molecule = "C=CCNC(=O)[C@H]1[C@@H]2C(=O)O[C@@H](c3ccccc3)[C@@H](c3ccccc3)N2[C@@H](c2ccc(O)cc2)[C@]12C(=O)Nc1ccc(C#CCCO)cc12"
observable = "z-score"
obs_value = 1.13

[[record]]
molecule = "C=C(CCCC)C(=O)CC[C@@H](OC(C)=O)c1ccc(CO)o1"
observable = "z-score"
obs_value = 0.519

[[record]]
molecule = "COC(=O)C(CC#Cc1ccc2c(c1)[C@]1(C(=O)N2)[C@H](c2ccccc2OCCO)N2[C@H](c3ccccc3)[C@H](c3ccccc3)OC(=O)[C@H]2[C@@H]1C(N)=O)C(=O)OC"
observable = "z-score"
obs_value = -1.55

[[record]]
molecule = "O=C1[C@@]23C=C(Br)[C@H](C[C@@H]2COC3)[C@]12CO2"
observable = "z-score"
obs_value = -0.845


May I ask what z-score has been recorded for CCCNC(=O)[C@@H]1c2ccccc2C(=O)N(Cc2ccccc2OC)[C@H]1c1ccc(CO)cc1 ?
-0.314

Fill in: z-score of COC(=O)[C@]1(Cc2ccccc2)N=C(c2ccc(OCCCO)cc2)O[C@@H]1c1ccccc1N=[N+]=[N-] is ___
-2.66

Reported z-score, molecule COCCOC(=O)N1C(=O)[C@@]2(c3cc(C#CC4(O)CCCCCC4)ccc31)[C@H](C(=O)Nc1nc3ccccc3s1)[C@H]1C(=O)O[C@H](c3ccccc3)[C@H](c3ccccc3)N1[C@@H]2c1ccccc1OCCO : ____
0.709

Which z-score is reported for this molecule? COCCCNC(=O)[C@@H]1c2ccccc2C(=O)N(Cc2ccccc2)[C@H]1c1ccc(CO)cc1
0.0319

Entry CC(=CC1CCCCC1)[C@@H](NC(=O)c1cccnc1)c1ccc(-c2ccccc2)cc1 has what z-score?
0.41
